Just for reference, ChEMBL document CHEMBL1201862 is where these values come from.

Below, each entry is listed with its recorded GI50.
Test system: CCRF-CEM
Assay: NCI tumour cell line growth inhibition, 48 h
Active and inactive are the calls of the source. Rule as the data show it: active = GI50 up to about 1.1 µM and inactive = higher.
parameter-measured: GI50

[[record]]
compound = "CC(=O)c1cc2c(s1)C(=O)c1ccccc1C2=O"
parameter_measured = "GI50"
endpoint_result = "1.96 µM (inactive)"

[[record]]
compound = "NC(=O)CN1C=CCC(C(N)=O)=C1 [CARICOTAMIDE]"
parameter_measured = "GI50"
endpoint_result = "> 100 µM (inactive)"

[[record]]
compound = "CC(C)C(/C=C/c1ccc(Cl)cc1)=N\\NC(=S)NN"
parameter_measured = "GI50"
endpoint_result = "2.68 µM (inactive)"

[[record]]
compound = "c1ccc2c(c1)ccn2CCc1c[nH]c2ccccc12"
parameter_measured = "GI50"
endpoint_result = "> 10 µM (inactive)"

[[record]]
compound = "CCN(CC)CCCNc1ccc2nnn3c4ccc(O)cc4c(=O)c1c23"
parameter_measured = "GI50"
endpoint_result = "2.29 µM (inactive)"

[[record]]
compound = "CNc1ccc(-c2nc3cc(C)ccc3o2)cc1"
parameter_measured = "GI50"
endpoint_result = "> 100 µM (inactive)"


====

Tested on: SNB-78
Experiment: NCI tumour cell line growth inhibition, 48 h
The source made the active and inactive calls. Rule as the data show it: active = GI50 up to about 1.1 µM and inactive = higher.
The entries below come with measured GI50 values attached.
parameter-measured: GI50

[[record]]
molecule = "COc1cc2nc(Sc3c([N+](=O)[O-])ncn3C)[nH]c2cc1OC"
endpoint_result = "34.8 µM (inactive)"

[[record]]
molecule = "CCS[C@H]1NC(=O)C1[C@H](C)O[Si](C)(C)C(C)(C)C (some centres not stated)"
endpoint_result = "> 100 µM (inactive)"

[[record]]
molecule = "CC(C)C(=S)N(C)O"
endpoint_result = "61.2 µM (inactive)"

[[record]]
molecule = "CN[C@@H](C)[C@H](N)c1ccccc1"
endpoint_result = "> 100 µM (inactive)"

[[record]]
molecule = "O=C1c2ccccc2C(=O)N1C/C=C/CO"
endpoint_result = "> 100 µM (inactive)"

[[record]]
molecule = "CCOC(=O)C1=C(Nc2ccccc2)SCC1=O"
endpoint_result = "> 100 µM (inactive)"

[[record]]
molecule = "C1=CC=C2NCCC/N=C3/C=CC=CC=C3NCCC/N=C\\2C=C1"
endpoint_result = "> 100 µM (inactive)"


====

Test system: NCI-H460
Experiment: NCI tumour cell line growth inhibition, 48 h
Calls of active or inactive are those of the source. Cut-off read from the data, not from the text of the source: active = GI50 up to about 1.1 µM and inactive = higher.
parameter-measured: GI50

[[record]]
molecule = "O=C(O)c1ccccc1/C=N\\N=C1NCCN1"
endpoint_result = "> 100 µM (inactive)"

[[record]]
molecule = "CCN(CC)C(=O)Cc1[nH][nH]c(=O)c1C(=O)N(CC)CC"
endpoint_result = "> 100 µM (inactive)"

[[record]]
molecule = "COc1ccc(C2=NN=C3C(c4ccccc4)=Nc4ccccc4N3C2)cc1"
endpoint_result = "22.1 µM (inactive)"

[[record]]
molecule = "COc1cc2nc(Sc3c([N+](=O)[O-])ncn3C)[nH]c2cc1OC"
endpoint_result = "49.9 µM (inactive)"

[[record]]
molecule = "COC1OC2COC1(OCc1ccccc1)C1OC(C)(C)OC21 (stereo unspecified)"
endpoint_result = "> 100 µM (inactive)"

[[record]]
molecule = "CC1(C)C(CBr)=[N+]([O-])C(C)(C)N1O"
endpoint_result = "> 10 µM (inactive)"

[[record]]
molecule = "Cc1nc2cc(C(F)(F)F)ccc2[nH]c1=O"
endpoint_result = "> 100 µM (inactive)"

[[record]]
molecule = "CC1CCC(=O)C(C(=O)CC2CC(=O)N(C)C(=O)C2)C1 (stereo unspecified)"
endpoint_result = "> 100 µM (inactive)"

[[record]]
molecule = "O=C(ON=C1c2ccccc2C(Br)C(Br)c2ccccc21)c1cc([N+](=O)[O-])cc([N+](=O)[O-])c1 (stereo unspecified)"
endpoint_result = "19.2 µM (inactive)"

[[record]]
molecule = "CCOC(=O)C(Cl)(NC(=O)c1ccc(F)cc1)C(F)(F)F (stereo unspecified)"
endpoint_result = "> 100 µM (inactive)"

[[record]]
molecule = "O=C(CSCC(=O)N/N=C/c1cccc(O)c1)N/N=C/c1cccc(O)c1"
endpoint_result = "> 100 µM (inactive)"


====

Measured GI50 accompanies every entry in the list below.
Test system: XF498
Assay: NCI tumour cell line growth inhibition, 48 h
Activity calls are given as the source filed them. Rule as the data show it: active = GI50 up to about 1.1 µM and inactive = higher.
parameter-measured: GI50

[[record]]
molecule = "Cc1nc(N)nc(CCC(=O)Nc2cccc(C(F)(F)F)c2)c1-c1ccc(Cl)cc1"
parameter_measured = "GI50"
endpoint_result = "> 100 µM (inactive)"

[[record]]
molecule = "CC1=CC2CCC1(C)C/C2=C(/C)OC=O (configuration not stated)"
parameter_measured = "GI50"
endpoint_result = "> 100 µM (inactive)"

[[record]]
molecule = "O=S(=O)(O)C(F)(F)C(F)(F)C(F)(F)C(F)(F)F"
parameter_measured = "GI50"
endpoint_result = "> 100 µM (inactive)"

[[record]]
molecule = "COC(=O)CC1N/C(=N\\C#N)N(CCc2c[nH]c3ccccc23)C1=O (configuration not stated)"
parameter_measured = "GI50"
endpoint_result = "> 100 µM (inactive)"

[[record]]
molecule = "O=C(CCCCCCCCCCc1ccccc1)C1=C(O)CC(O)CC1=O (configuration not stated)"
parameter_measured = "GI50"
endpoint_result = "> 100 µM (inactive)"

[[record]]
molecule = "CCC/C=C1\\CCC(CN(C)C)C1=O (configuration not stated)"
parameter_measured = "GI50"
endpoint_result = "5.57 µM (inactive)"

[[record]]
molecule = "CCS[C@H]1NC(=O)C1[C@H](C)O[Si](C)(C)C(C)(C)C (some centres not stated)"
parameter_measured = "GI50"
endpoint_result = "> 100 µM (inactive)"

[[record]]
molecule = "COC(=O)CC1NC(=O)C1C(C)(OC)OC (configuration not stated)"
parameter_measured = "GI50"
endpoint_result = "> 100 µM (inactive)"

[[record]]
molecule = "CC(=O)NC1=C(C)C(=O)c2c(nc3n2CCC3O)C1=N (configuration not stated)"
parameter_measured = "GI50"
endpoint_result = "3.81 µM (inactive)"

[[record]]
molecule = "Cc1ccccc1-c1cc(=O)c2cc(C)c(C)c(C(=O)O)c2o1"
parameter_measured = "GI50"
endpoint_result = "71.1 µM (inactive)"

[[record]]
molecule = "CN(C)CCNC(=O)c1cc([N+](=O)[O-])cc2ccc(-c3ccccc3)nc12"
parameter_measured = "GI50"
endpoint_result = "7.19 µM (inactive)"

[[record]]
molecule = "N#[N+]c1ccccc1Sc1ccc(Cl)cc1"
parameter_measured = "GI50"
endpoint_result = "> 100 µM (inactive)"


====

System: SR
Assay: NCI tumour cell line growth inhibition, 48 h
Active and inactive are the calls of the source. Rule as the data show it: active = GI50 up to about 1.1 µM and inactive = higher.
parameter-measured: GI50

[[record]]
compound = "CNC(=O)NCCN1CC2CCC(CC2)C1"
endpoint_result = "> 10 µM (inactive)"

[[record]]
compound = "COC(=O)CC1N/C(=N\\C#N)N(CCc2c[nH]c3ccccc23)C1=O (stereo not given)"
endpoint_result = "94.2 µM (inactive)"

[[record]]
compound = "CCc1nc(N)nc(N)c1-c1ccc(NC)c([N+](=O)[O-])c1"
endpoint_result = "0.327 µM (active)"

[[record]]
compound = "COc1ccc(N2C(Cl)C(=O)C2c2c[nH]c3ccccc23)cc1 (stereo not given)"
endpoint_result = "> 100 µM (inactive)"

[[record]]
compound = "Nc1ncnc2c1ncn2C1CC(OC2CCCCO2)C(CO)O1 (stereo not given)"
endpoint_result = "> 100 µM (inactive)"

[[record]]
compound = "O=C1/C(=c2\\s/c(=C\\c3ccccc3)c(=O)n2-c2ccccc2)SC(=S)N1c1ccccc1"
endpoint_result = "10.7 µM (inactive)"

[[record]]
compound = "COc1cc(/C=C2\\[C@H]3c4c(c(OC)c(C)c(OC)c4OC)CC(C(=O)N2Cc2ccccc2)N3C)c(OC)c(C)c1OC"
endpoint_result = "21.2 µM (inactive)"

[[record]]
compound = "Cn1c(=O)c2nc(CS(=O)(=O)Cc3nc4c(=O)n(C)c(=O)n(C)c4[nH]3)[nH]c2n(C)c1=O"
endpoint_result = "> 100 µM (inactive)"

[[record]]
compound = "CC(=O)c1c(SCCN2CCCC2)n(-c2ccccc2)c(=S)n(-c2ccccc2)c1=O"
endpoint_result = "2.28 µM (inactive)"

[[record]]
compound = "O=C(CCc1cccc(O)c1)NCCc1ccc(O)cc1"
endpoint_result = "> 100 µM (inactive)"


====

Tested on: SF-268
Experiment: NCI tumour cell line growth inhibition, 48 h
Activity calls are given as the source filed them. Cut-off read from the data, not from the text of the source: active = GI50 up to about 1.1 µM and inactive = higher.
Outcome codes: t = active, f = inactive

[[record]]
molecule = "NC(=O)C1CCCN1Cc1ccc2c(c1)OCO2 (centres undefined)"
assay_system = "SF-268"
class_label = "f"

[[record]]
molecule = "COC1=C2CC(C)CC(OC)C(OC(=O)CN)[C@H](C)/C=C(\\C)C(OC(N)=O)C(OC)/C=C\\C=C(/C)C(=O)NC(=CC1=O)C2=O (some centres undefined)"
assay_system = "SF-268"
class_label = "f"

[[record]]
molecule = "CC(C)N1CCC2(CC1)NNc1ncccc1-n1cccc12"
assay_system = "SF-268"
class_label = "f"

[[record]]
molecule = "CC(C)C(=S)N(C)O"
assay_system = "SF-268"
class_label = "f"

[[record]]
molecule = "CC(=O)Nc1ccc(C(=O)N2N=C(C)/C(=C/c3cccc([N+](=O)[O-])c3)C2=O)cc1"
assay_system = "SF-268"
class_label = "f"

[[record]]
molecule = "O=C(c1ccccc1)c1cc(-c2ccccc2)c(-c2ccccc2)[nH]c(=O)c1=O"
assay_system = "SF-268"
class_label = "f"

[[record]]
molecule = "O=C(/C=C/c1ccc(-c2ccccc2)cc1)NCc1ccc(C(=O)NCCc2ccccc2)cc1"
assay_system = "SF-268"
class_label = "f"

[[record]]
molecule = "Cc1ccc(S(=O)(=O)NC(=O)NC(Cc2ccc(O)c(O)c2)C(=O)O)cc1 (centres undefined)"
assay_system = "SF-268"
class_label = "t"

[[record]]
molecule = "O=C1c2ccccc2C(=O)N1C/C=C/CO"
assay_system = "SF-268"
class_label = "f"

[[record]]
molecule = "COc1ccc(C2C3=C(Nc4ncnn42)c2ccccc2OC3c2ccccc2)cc1 (centres undefined)"
assay_system = "SF-268"
class_label = "f"

[[record]]
molecule = "Cc1ccc(-c2cc(N)n(-c3nc4c(c(=O)n(C)c(=O)n4C)n3C)n2)cc1"
assay_system = "SF-268"
class_label = "f"

[[record]]
molecule = "c1csc(-c2ccc(-c3ccc(-c4cccs4)s3)s2)c1"
assay_system = "SF-268"
class_label = "f"

[[record]]
molecule = "CC1(C(=O)O)CCC(C(=O)O)C(C)(C)O1 (centres undefined)"
assay_system = "SF-268"
class_label = "f"

[[record]]
molecule = "CCOC(=O)C(Cl)(NC(=O)c1ccc(F)cc1)C(F)(F)F (centres undefined)"
assay_system = "SF-268"
class_label = "f"

[[record]]
molecule = "C1=C(c2ccccc2)NC2=N[C@H]3CCCC[C@@H]3N2C1c1ccccc1 (some centres undefined)"
assay_system = "SF-268"
class_label = "f"

[[record]]
molecule = "CC(C)(C)NC(NC(C)(C)C)=C(/C=C(/Cl)[N+](=O)[O-])[N+](=O)[O-]"
assay_system = "SF-268"
class_label = "f"

[[record]]
molecule = "CNc1ccc(-c2nc3cc(C)ccc3o2)cc1"
assay_system = "SF-268"
class_label = "f"

[[record]]
molecule = "CNC(=O)NCCN1N=C(C)/C(=C\\c2ccccc2)CC1=O"
assay_system = "SF-268"
class_label = "f"

[[record]]
molecule = "COC(Cc1cc(C(O)(c2ccc(C(C)(C)C)cc2)c2cc(CC(OC)(c3cc(C(OC)(c4ccc(C(C)(C)C)cc4)c4ccc(C(C)(C)C)cc4)c(C)cc3C)c3cc(C(OC)(c4ccc(C(C)(C)C)cc4)c4ccc(C(C)(C)C)cc4)c(C)cc3C)c(C)cc2C)c(C)cc1C)(c1cc(C(OC)(c2ccc(C(C)(C)C)cc2)c2ccc(C(C)(C)C)cc2)c(C)cc1C)c1cc(C(OC)(c2ccc(C(C)(C)C)cc2)c2ccc(C(C)(C)C)cc2)c(C)cc1C"
assay_system = "SF-268"
class_label = "f"

[[record]]
molecule = "COc1cccc2c1CCc1c(-c3ccc(F)cc3)cc(-c3ccc4ccccc4n3)nc1-2"
assay_system = "SF-268"
class_label = "f"

[[record]]
molecule = "O=c1c(C(c2ccccc2)c2c(O)oc3cc(O)ccc3c2=O)c(O)oc2cc(O)ccc12"
assay_system = "SF-268"
class_label = "f"

[[record]]
molecule = "COC(=O)c1cc(C#Cc2cc(OC)ccc2OC)ccc1OC"
assay_system = "SF-268"
class_label = "f"

[[record]]
molecule = "COc1ccc(-c2cc(-c3ccccc3)nc(/N=C\\c3ccccc3)n2)c(O)c1"
assay_system = "SF-268"
class_label = "f"

[[record]]
molecule = "CCOC(=O)CC(=O)C(=O)NN=C1NCCN1"
assay_system = "SF-268"
class_label = "f"

[[record]]
molecule = "COc1cc(/C=C2\\C[C@H]3[C@@H]4CC=C5C[C@@H](N6CCCC6)CC[C@]5(C)[C@H]4CC[C@]3(C)[C@H]2OC(C)=O)cc(OC)c1OC"
assay_system = "SF-268"
class_label = "f"

[[record]]
molecule = "O=C(CN1C(=O)CC(c2ccccc2)(c2ccccc2)C1=O)N1CCN(CCO)CC1"
assay_system = "SF-268"
class_label = "f"

[[record]]
molecule = "O=C(ON=C1c2ccccc2C(Br)C(Br)c2ccccc21)c1cc([N+](=O)[O-])cc([N+](=O)[O-])c1 (centres undefined)"
assay_system = "SF-268"
class_label = "f"

[[record]]
molecule = "Nc1nc(N)nc(-c2cnc3ccccc3c2)n1"
assay_system = "SF-268"
class_label = "f"

[[record]]
molecule = "c1ccc(SC(CCCCOC2CCCCO2)Sc2ccccc2)cc1 (centres undefined)"
assay_system = "SF-268"
class_label = "f"

